Value source: ChEMBL document CHEMBL1129118

# SYSTEM: Glutamate NMDA receptor
# ASSAY NOTES: Binding affinity to the glutamate site of the NMDA receptor was measured by competitive inhibition of binding of [3H]-CGP- 39653 to rat or porcine cerebral cortex membranes
Criterion: Ki strictly less than 30 nM. Met: True. Not met: False.

Example cases with answers are listed next.
O=C(O)[C@@H]1C[C@H](CP(=O)(O)O)CCN1 (relative stereo) | True
CCC/C(=C\C(N)C(=O)O)CP(=O)(O)O (stereo unspecified) | True
N[C@H](Cc1nc2ccc(F)cc2cc1CP(=O)(O)O)C(=O)O | False
N[C@H](Cc1nc2cc(Cl)c(Cl)cc2cc1CP(=O)(O)O)C(=O)O | True
N[C@H](Cc1nc2ccncc2cc1CP(=O)(O)O)C(=O)O | False

Decide: Ki of CCOc1ccc2cc(CP(=O)(O)O)c(C[C@@H](N)C(=O)O)nc2c1 strictly below 30 nM?
True

Decide: Ki of N[C@H](Cc1nc2ccc(Cl)cc2cc1CP(=O)(O)O)C(=O)O strictly below 30 nM?
False

Decide: Ki of N[C@H](Cc1nc2cc(Cl)c(Cl)cc2n1CP(=O)(O)O)C(=O)O strictly below 30 nM?
True
